Molecular target: T1, monkey GFRα3 expressed with a C-terminal myc-myc-hexahistidine tag (monkey (Mf), UniProt O60609 32-374 (human entry), limits assumed)
T1 construct: also called MfGFRα3-mmh; MfGFRα3-mmH
T1 chain: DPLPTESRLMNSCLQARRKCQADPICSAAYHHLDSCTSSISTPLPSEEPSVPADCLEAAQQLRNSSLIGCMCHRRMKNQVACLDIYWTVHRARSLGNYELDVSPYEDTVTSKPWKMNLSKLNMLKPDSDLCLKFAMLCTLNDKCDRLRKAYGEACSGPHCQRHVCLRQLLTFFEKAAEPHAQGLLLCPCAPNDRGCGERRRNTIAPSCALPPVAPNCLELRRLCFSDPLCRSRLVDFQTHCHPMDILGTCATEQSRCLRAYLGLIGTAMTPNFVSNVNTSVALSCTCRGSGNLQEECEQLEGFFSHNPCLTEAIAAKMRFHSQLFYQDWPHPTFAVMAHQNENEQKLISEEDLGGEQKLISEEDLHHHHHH
Experiment: SPR, Ab captured, 25C
observationType: koff (s⁻¹)
Lab book: enter the figure in s⁻¹, no units written.

The following binders have reported results that may help.
[[record]]
binder = "H4H2357S (antibody, human IgG4, V domains shown, human IgG4 Fc (H4H)) VH: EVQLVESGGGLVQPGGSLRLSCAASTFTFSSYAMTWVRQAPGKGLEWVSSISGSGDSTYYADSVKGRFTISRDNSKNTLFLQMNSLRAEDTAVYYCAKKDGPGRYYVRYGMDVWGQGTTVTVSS VL: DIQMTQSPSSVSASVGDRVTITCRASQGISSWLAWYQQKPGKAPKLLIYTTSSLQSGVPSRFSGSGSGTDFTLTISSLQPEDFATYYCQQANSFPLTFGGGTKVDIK"
observationtype = "koff"
measurement = 0.000315

[[record]]
binder = "H4H2342P (antibody, human IgG4, V domains shown, human IgG4 Fc (H4H)) VH: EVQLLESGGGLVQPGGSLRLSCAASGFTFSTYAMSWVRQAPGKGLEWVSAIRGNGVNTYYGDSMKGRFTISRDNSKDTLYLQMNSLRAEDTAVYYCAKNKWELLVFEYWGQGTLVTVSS VL: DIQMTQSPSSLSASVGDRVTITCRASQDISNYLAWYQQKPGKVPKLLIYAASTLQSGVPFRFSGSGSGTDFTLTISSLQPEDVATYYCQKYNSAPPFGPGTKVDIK"
observationtype = "koff"
measurement = 0.00055

[[record]]
binder = "H4H2345S (antibody, human IgG4, V domains shown, human IgG4 Fc (H4H)) VH: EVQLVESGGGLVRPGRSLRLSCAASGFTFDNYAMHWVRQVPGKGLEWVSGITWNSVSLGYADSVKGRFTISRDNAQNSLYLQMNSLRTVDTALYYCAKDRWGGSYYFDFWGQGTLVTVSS VL: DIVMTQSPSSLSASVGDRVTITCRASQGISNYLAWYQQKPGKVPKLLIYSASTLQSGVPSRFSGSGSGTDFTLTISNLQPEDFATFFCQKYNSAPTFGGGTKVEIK"
observationtype = "koff"
measurement = 0.00279


Requested field: koff. Item: H4H2346S (antibody, human IgG4, V domains shown, human IgG4 Fc (H4H)) VH: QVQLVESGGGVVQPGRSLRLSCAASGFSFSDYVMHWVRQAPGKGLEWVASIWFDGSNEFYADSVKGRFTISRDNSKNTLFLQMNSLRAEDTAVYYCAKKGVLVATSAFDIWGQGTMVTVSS VL: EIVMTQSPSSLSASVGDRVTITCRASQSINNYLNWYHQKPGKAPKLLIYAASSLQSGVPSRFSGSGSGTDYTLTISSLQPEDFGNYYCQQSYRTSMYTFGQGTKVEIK
5.98e-05

Where do the numbers come from? From patent US20140056903A1.
